# Tested on: multi-drug resistant Lewis lung cancer
# assay_remarks: Tumor weight and inhibition rate, transplanted multi-drug resistant Lewis lung cancer
# Assay type: in vivo, mice
# condition_label: multi-drug resistant Lewis lung cancer mice; test drug 30 mg/kg i.p. 5 days, then gemcitabine 300 mg/kg or dacarbazine 60 mg/kg every other day
# Method: Lewis lung cancer cell lines were induced by the increased gradient concentration of dacarbazine and gemcitabine, and established by clone screening, then cultured without drug before the experiment. After the drug was removed from the drug-resistant cell lines, the cell concentration was adjusted to 1×10^7/ml with the culture medium. 1×10^7/ml of cells were subcutaneously injected into the right armpit of mice, 0.1 ml per mouse. […]
endpoint: Tumor weight (g)
A number alone suffices; assume g.

Specify Tumor weight for O=C(/C=C/c1ccc(O)c(O)c1)O[C@@H]1C[C@](O)(C(=O)O)C[C@@H](O)[C@H]1O , system multi-drug resistant Lewis lung cancer.
1.92

Specify Tumor weight for O=C(/C=C/c1ccc(O)cc1)O[C@@H]1C[C@](O)(C(=O)O)C[C@@H](O)[C@H]1O , system multi-drug resistant Lewis lung cancer.
2.15

Specify Tumor weight for Nc1ccn([C@@H]2O[C@H](CO)[C@@H](O)C2(F)F)c(=O)n1 [Gemcitabine, gemcitabine, reference compound] , system multi-drug resistant Lewis lung cancer.
2.27

Specify Tumor weight for CN(C)/N=N/c1[nH]cnc1C(N)=O [Dacarbazine, reference compound] , system multi-drug resistant Lewis lung cancer.
2.33

###

Give Tumor-inhibition rate (%) for every item shown.
# Tested on: multi-drug resistant Lewis lung cancer
# assay_remarks: Tumor weight and inhibition rate, transplanted multi-drug resistant Lewis lung cancer
# Type: in vivo, mice
# condition_label: multi-drug resistant Lewis lung cancer mice; test drug 30 mg/kg i.p. 5 days, then gemcitabine 300 mg/kg or dacarbazine 60 mg/kg every other day
# Method: Lewis lung cancer cell lines were induced by the increased gradient concentration of dacarbazine and gemcitabine, and established by clone screening, then cultured without drug before the experiment. After the drug was removed from the drug-resistant cell lines, the cell concentration was adjusted to 1×10^7/ml with the culture medium. 1×10^7/ml of cells were subcutaneously injected into the right armpit of mice, 0.1 ml per mouse. […]
A number alone suffices; assume %.

Specify Tumor-inhibition rate (%) for CN(C)/N=N/c1[nH]cnc1C(N)=O [Dacarbazine, reference compound] , system multi-drug resistant Lewis lung cancer.
1.27

Specify Tumor-inhibition rate (%) for Nc1ccn([C@@H]2O[C@H](CO)[C@@H](O)C2(F)F)c(=O)n1 [Gemcitabine, gemcitabine, reference compound] , system multi-drug resistant Lewis lung cancer.
3.81

Specify Tumor-inhibition rate (%) for O=C(/C=C/c1ccc(O)c(O)c1)O[C@@H]1C[C@](O)(C(=O)O)C[C@@H](O)[C@H]1O [Chlorogenic acid, chlorogenic acid] , system multi-drug resistant Lewis lung cancer.
18.64

Specify Tumor-inhibition rate (%) for O=C(/C=C/c1ccc(O)cc1)O[C@@H]1C[C@](O)(C(=O)O)C[C@@H](O)[C@H]1O [Coumaroylquinic acid, coumaroylquinic acid] , system multi-drug resistant Lewis lung cancer.
8.90
